target: P. falciparum apicoplast DNA polymerase (Pf-apPOL) (Plasmodium falciparum, UniProt Q8ILY1); experiment: Fluorescence-based high-throughput DNA polymerase assay (molecular beacon), primary screen and dose-response; type: biochemical; conditions: DRC-1; 180'; concentration 5;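 further: test concentration in µM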
Sequence (Q8ILY1 entry or part of it): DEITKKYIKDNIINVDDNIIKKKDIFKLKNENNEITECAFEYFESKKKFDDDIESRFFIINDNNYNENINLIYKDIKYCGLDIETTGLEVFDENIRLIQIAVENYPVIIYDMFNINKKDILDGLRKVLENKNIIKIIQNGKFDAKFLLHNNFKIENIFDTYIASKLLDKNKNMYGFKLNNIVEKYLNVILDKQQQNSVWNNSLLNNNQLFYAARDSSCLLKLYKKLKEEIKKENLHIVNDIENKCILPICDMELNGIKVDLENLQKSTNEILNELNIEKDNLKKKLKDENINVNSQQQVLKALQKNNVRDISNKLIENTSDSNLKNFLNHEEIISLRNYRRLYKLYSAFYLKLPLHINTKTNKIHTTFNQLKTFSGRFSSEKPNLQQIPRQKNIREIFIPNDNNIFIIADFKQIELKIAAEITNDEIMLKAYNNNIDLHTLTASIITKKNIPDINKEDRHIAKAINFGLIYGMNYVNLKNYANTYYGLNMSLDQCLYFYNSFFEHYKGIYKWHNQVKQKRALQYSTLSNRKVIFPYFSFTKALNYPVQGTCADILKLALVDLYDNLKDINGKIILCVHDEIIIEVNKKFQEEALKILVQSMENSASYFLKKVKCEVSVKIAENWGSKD
readout.kind: % inhibition apPOL 180' (%)
The reply should contain only the number, in %.

Some solved cases for reference:
IN: Please look at this compound and report its % inhibition apPOL 180': Oc1cccc2ccc(/C=C/c3ccc4c(c3)OCO4)nc12
OUT: -1.027

IN: Annotate the compound O=C(Cn1ccc2c(=O)[nH]ccc21)Nc1ccc(Cl)cc1 [Molecule 36, O=C(Cn1ccc2c1cc[nH]c2=O)Nc1ccc(cc1)Cl] with its measured % inhibition apPOL 180'.
OUT: 0.9781

IN: Name the recorded % inhibition apPOL 180' of the compound listed here: Cc1ccc(-n2nnc(C(=O)O)c2-c2ccccn2)c(F)c1
OUT: -7.146

IN: Look up and state reported % inhibition apPOL 180' for O=C(NC(C(Cl)Cl)S(=O)(=O)c1ccccc1)c1ccccc1 (centres unmarked)
OUT: 7.81

IN: Entry CCCCSc1nnc2c(n1)OC(c1ccc([N+](=O)[O-])o1)Nc1ccccc1-2 (centres unmarked) needs its % inhibition apPOL 180' filled in; supply it.
OUT: 3.59

***
IN: Give recorded % inhibition apPOL 180'. COc1cccc(C(=O)N2CCc3c(nc4cc(-c5ccccc5)[nH]n4c3=O)C2)c1OC
OUT: 2.34

IN: Read the entry COc1ccc(C=C2Oc3c(ccc4c3CN(c3ccc5c(c3)OCO5)CO4)C2=O)cc1OC and write its reported % inhibition apPOL 180'.
OUT: 23.9693

IN: For the compound O=c1cc(-c2ccccc2)oc2c(O)c(O)ccc12 , give its reported % inhibition apPOL 180'.
OUT: -2.772

====

The entries below come with measured % inhibition T4 180' 5 values attached.
molecular target: bacteriophage T4 DNA polymerase (Enterobacteria phage T4); construct: made in house; experiment: Counter-screen against bacteriophage T4 DNA polymerase; format: biochemical; conditions: DRC-2; read at 180'; concentration 5
Sequence (P04415 whole entry): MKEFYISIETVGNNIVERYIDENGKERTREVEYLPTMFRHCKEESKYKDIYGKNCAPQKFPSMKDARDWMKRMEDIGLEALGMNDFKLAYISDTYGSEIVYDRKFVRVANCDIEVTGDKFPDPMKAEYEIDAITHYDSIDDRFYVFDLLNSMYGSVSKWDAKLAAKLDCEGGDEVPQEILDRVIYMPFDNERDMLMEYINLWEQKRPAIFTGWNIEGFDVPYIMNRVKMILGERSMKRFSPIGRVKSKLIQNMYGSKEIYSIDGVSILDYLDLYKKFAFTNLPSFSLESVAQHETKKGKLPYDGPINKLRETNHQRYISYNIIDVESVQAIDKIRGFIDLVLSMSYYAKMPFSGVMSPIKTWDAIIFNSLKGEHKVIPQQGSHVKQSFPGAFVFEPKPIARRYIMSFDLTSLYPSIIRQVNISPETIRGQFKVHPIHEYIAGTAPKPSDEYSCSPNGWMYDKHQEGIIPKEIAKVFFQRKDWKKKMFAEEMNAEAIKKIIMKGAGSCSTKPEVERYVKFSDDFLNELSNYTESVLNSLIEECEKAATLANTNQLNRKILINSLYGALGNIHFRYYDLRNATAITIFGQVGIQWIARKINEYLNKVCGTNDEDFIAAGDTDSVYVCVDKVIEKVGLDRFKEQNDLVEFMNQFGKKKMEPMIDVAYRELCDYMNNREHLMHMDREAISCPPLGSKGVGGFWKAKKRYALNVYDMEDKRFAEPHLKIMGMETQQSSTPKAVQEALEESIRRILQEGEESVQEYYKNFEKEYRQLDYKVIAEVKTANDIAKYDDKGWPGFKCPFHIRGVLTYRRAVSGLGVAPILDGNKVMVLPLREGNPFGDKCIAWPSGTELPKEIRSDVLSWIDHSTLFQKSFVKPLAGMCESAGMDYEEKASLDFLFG
The figure you give is taken to be in %; do not add the unit.

Examples with answers:
IN: Please report the measured % inhibition T4 180' 5 for Cn1nc(-c2nc(-c3ccccc3)no2)c2c1CCN(C(=O)Cc1cccs1)C2
OUT: 1.9

IN: Report % inhibition T4 180' 5, nothing else, for this compound: Cc1nc(C)c2c(n1)N(CC1CCCCC1)C(=O)CC2
OUT: 0.674

IN: Supply reported % inhibition T4 180' 5 belonging to this compound: Cn1nc(-c2nnc(-c3ccccc3F)o2)c2c1CCN(C(=O)c1ccccc1Cl)C2
OUT: -7.58

IN: Please give measured % inhibition T4 180' 5 of the following entry: O=C(c1ccccc1)N1CCc2c(nc3cc(-c4ccccc4)[nH]n3c2=O)C1
OUT: -16

IN: Give % inhibition T4 180' 5 for Cc1cccc(-c2noc(C(=O)NNC(=O)C(Cl)(Cl)Cl)n2)c1
OUT: -5.37

IN: Please indicate % inhibition T4 180' 5 recorded for O=C1CSC2=NC3=C(CCc4ccccc43)C(c3cccs3)N12 (stereo not drawn)
OUT: 15

IN: Give the measured % inhibition T4 180' 5 for COc1ccccc1CC(=O)N1CCc2c(nc3cc(-c4ccccc4Cl)[nH]n3c2=O)C1
OUT: -24

IN: Supply measured % inhibition T4 180' 5 of COc1ccc(C2CC(c3ccc(Cl)cc3Cl)Nc3nc(N)nn32)cc1OC (stereo not drawn) in your reply.
OUT: -8

Others:
IN: Using known records, supply % inhibition T4 180' 5 for COc1ccc(/C=C/c2cc(C(=O)O)c3ccccc3n2)cc1
OUT: 0.194

IN: Answer with reported % inhibition T4 180' 5 of N#Cc1c(O)nc(N2CCCCC2)nc1-c1ccc2c(c1)OCO2
OUT: 11

IN: Please list % inhibition T4 180' 5 recorded for the compound O=C(CCc1csc(NC(=O)Nc2ccccc2)n1)Nc1nc2ccccc2s1
OUT: -1.4

IN: Please list % inhibition T4 180' 5 recorded for the compound CC(=O)OCC1=C(C(=O)[O-])N2C(=O)[C@@H](NC(=O)Cc3cccs3)[C@H]2SC1.[Na+]
OUT: -2.85
